Taken from the Immune Epitope Database (IEDB).

# Tested target: HLA-A*02:50
# Assay text: IEDB peptide-MHC binding, purified MHC/direct/fluorescence; filed as Kd, often an IC50 or EC50 that approximates it; bounds were set here for any values at or beyond the usual limits of such assays
# Measurement conditions: source organism: Francisella tularensis subsp. tularensis FSC033
pKd: −log10 of the molar value.
Measurement label: pKd

Can you share its pKd? I mean this sequence: NTIEELSGY
≤ 4.70

* * *

Listed here: items and their measured Kd.
# Tested target: HLA-B*46:01
# Assay text: IEDB peptide-MHC binding, purified MHC/competitive/fluorescence; filed as Kd, often an IC50 or EC50 that approximates it; bounds were set here for any values at or beyond the usual limits of such assays
# Measurement conditions: source organism: Homo sapiens

| Biosequence | Kd |
| --- | --- |
| KMFTYLMES | ≥ 20 µM |
| WLGHPFTPV | ≥ 20 µM |

Can you share its Kd? I mean this sequence: SSDLRSWTF
≥ 20 µM
